Measured melting point accompanies every entry in the list below.

// worked examples, melting point included
CC(C)(C)N.O=C(O)c1cccc(/C=C\CCOC(=O)N(c2ccccc2)c2ccccc2)c1 [Example 14B]	172.8 to 176.8 °C
CC(C)(C)N.CC(CCc1cccc(CC(=O)O)c1)OC(=O)N(c1ccccc1)c1ccccc1 (stereo not shown) [Example 14C]	112.3 to 113.1 °C
O=C(O)CCCCOc1cccc(/C=C\COC(=O)N(c2ccccc2)c2ccccc2)c1 [Example 10A]	56.3 to 56.7 °C

Now let's try a different one.
Q. Name the reported melting point value associated with the compound CC(C)(C)N.O=C(O)c1cccc(/C=C\COC(=O)N(c2ccccc2)c2ccccc2)c1 [Example 14B]
A. 180.5 to 184 °C

====

Measured melting point accompanies every entry in the list below.
Where a name gives a salt, the structure may show the parent alone.

// worked examples, melting point included
O=C(O)Cc1cccc(CCCCOC(=O)N(c2ccccc2)c2ccccc2)c1	117.8 to 119.6 °C
Cc1c(CCCOC(=O)N(c2ccccc2)c2ccccc2)cccc1CC(=O)O	128.7 to 129.2 °C
CC(C)(C)N.O=C(O)COc1cccc(/C=C\CCCCOC(=O)N(c2ccccc2)c2ccccc2)c1 [Example 10A]	87 to 88.5 °C
O=C(O)COc1cccc(COC(=O)N(c2ccccc2)c2ccccc2)c1Cl	182.2 to 182.9 °C
O=C(O)COc1cccc(/C=C\CCOC(=O)N(c2ccccc2)c2ccccc2)c1 (as salt: salt) [Example 10A]	112.5 to 112.8 °C

Q. Name the reported melting point value associated with the molecule O=C(O)COc1cccc(/C=C\COC(=O)N(Cc2ccccc2)c2ccccc2)c1 (as salt: salt) [Example 10B]
A. 107 to 108.5 °C

Q. Please answer likewise for `Cc1c(/C=C\COC(=O)N(c2ccccc2)c2ccccc2)cccc1OCC(=O)O`
A. 133.4 to 135.5 °C

Q. Please answer likewise for O=C(O)COc1cccc(/C=C\COC(=O)N(c2ccccc2)c2ccccc2)c1 (as salt: salt)
A. 132.5 to 135 °C

Q. Please answer likewise for `Cc1c(COC(=O)N(c2ccccc2)c2ccccc2)cccc1OCC(=O)O`
A. 180.1 to 180.7 °C

Q. Please answer likewise for CC(C)(C)N.O=C(O)CCCOc1cccc(/C=C\COC(=O)N(c2ccccc2)c2ccccc2)c1 [Example 10A]
A. 102 to 106 °C

Q. Please answer likewise for `O=C(O)Cc1cccc(CCCCCOC(=O)N(c2ccccc2)c2ccccc2)c1`
A. 128.1 to 128.7 °C

Q. Please answer likewise for CC(C)(C)N.O=C(O)Cc1cccc(/C=C\CCOC(=O)N(c2ccccc2)c2ccccc2)c1 [Example 14A]
A. 151.2 to 153.1 °C

Q. Please answer likewise for `O=C(O)Cc1cccc(CCOC(=O)N(c2ccccc2)c2ccccc2)c1`
A. 123 to 123.3 °C

====

Where a name gives a salt, the structure may show the parent alone.
ENDPOINT_NAME: melting point

// worked examples, melting point included
O=C(O)CCc1cccc(/C=C\COC(=O)N(c2ccccc2)c2ccccc2)c1 (as salt: salt) [Example 13]	131.8 to 132.4 °C
O=C(O)COc1cccc(/C=C/COC(=O)N(c2ccccc2)c2ccccc2)c1 [Example 6]	112.4 to 113.7 °C
O=C(O)COc1cccc(COC(=O)N(c2ccccc2)c2ccccc2)c1 [Example 4]	142.2 to 143.8 °C

Now let's try a different one.
Q. Name the reported melting point value associated with the compound O=C(O)Cc1cccc(CCCCCCOC(=O)N(c2ccccc2)c2ccccc2)c1 [Example 12]
A. 99.8 to 101.7 °C
